Listed here: items and their measured IC50.
Biological target: serotonin receptors
Assay: Receptor-binding experiment
Settings: rat cerebral cortex membrane, ^3 H-ligand, 30° C., 1 hour; read-out: IC50 (concentration required to inhibit the binding by 50%)
Where a name gives a salt, the structure may show the parent alone.
MEASUREMENT_NAME: IC50

>>> endpoint_result("CN1C[C@H](O)C[C@H]1CCOc1ccc(F)cc1CCc1ccc(F)cc1 [Example 2, hydrochloride]")
"0.8 nM"
>>> endpoint_result("COc1cc(CCc2cc(F)ccc2OCC[C@@H]2C[C@@H](O)CN2C)ccc1F [Example 4, hydrochloride]")
"0.65 nM"
>>> endpoint_result("CN1C[C@H](O)C[C@H]1CCOc1ccc(F)cc1CCc1ccc(F)c(F)c1 [Example 7, hydrochloride]")
"0.75 nM"
>>> endpoint_result("COc1cccc(CCc2cc(F)ccc2OCC[C@@H]2C[C@@H](O)CN2C)c1 [Example 1, hydrochloride]")
"1 nM"
>>> endpoint_result("CN1C[C@H](O)C[C@H]1CCOc1ccc(F)cc1CCc1ccccc1 [Example 6, hydrochloride]")
"3.4 nM"

* * *

Biological target: squalene synthase (Rattus norvegicus, UniProt Q02769)
Construct: The reaction was started by the addition of rat liver microsome suspension; from tissue; host or cells: rat liver microsomes
Sequence (Q02769 whole entry): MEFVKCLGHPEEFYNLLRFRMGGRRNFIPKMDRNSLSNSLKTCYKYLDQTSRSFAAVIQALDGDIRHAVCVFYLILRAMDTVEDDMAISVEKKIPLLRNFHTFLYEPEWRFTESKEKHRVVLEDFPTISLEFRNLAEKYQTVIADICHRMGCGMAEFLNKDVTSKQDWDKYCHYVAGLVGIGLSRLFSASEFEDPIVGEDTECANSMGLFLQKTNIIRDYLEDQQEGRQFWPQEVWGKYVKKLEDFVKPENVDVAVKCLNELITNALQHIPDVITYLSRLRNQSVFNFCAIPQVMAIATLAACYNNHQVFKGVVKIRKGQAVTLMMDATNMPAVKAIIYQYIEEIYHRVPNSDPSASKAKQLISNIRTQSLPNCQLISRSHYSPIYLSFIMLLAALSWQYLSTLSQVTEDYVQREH
Assay: Squalene synthase inhibitory activity
Type: biochemical
Details: rat liver microsome, 10 μM [4-^14 C]-FPP, pH 7.5, 37° C., 20 minutes; read-out: IC50 (50% inhibitory concentration)
pIC50: −log10 of the molar value. Where a name gives a salt, the structure may show the parent alone.
Listed here: items and their measured pIC50.
MEASUREMENT_NAME: pIC50

>>> endpoint_result("COc1cc(CCc2cc(F)ccc2OCC[C@@H]2C[C@@H](O)CN2C)ccc1F [Example 4, hydrochloride]")
5.80
>>> endpoint_result("O[C@H]1CN[C@H](CCOc2ccc(F)cc2CCc2ccccc2)C1 [Example 5]")
6.13
>>> endpoint_result("CN1C[C@H](O)C[C@H]1CCOc1ccc(F)cc1CCc1ccccc1 [Example 6, hydrochloride]")
5.96
>>> endpoint_result("Cc1ccc(OCC[C@@H]2C[C@@H](O)CN2C)c(CCc2ccccc2)c1 [Example 12, hydrochloride]")
5.82

* * *

Tested on: smooth muscle contraction
Experiment: Vasoconstriction experiment (serotonin-induced contraction of tail artery helical strip)
Type: cell-based, Male SD rats
Details: rat tail artery strip, 3×10^-6 M serotonin, Tyrode's solution, 37° C.; read-out: IC50 (concentration required to reduce the tension to 50%)
Description: Vasoconstriction experiment Effects on smooth muscle contraction were examined by the method of Van Neuten et al. [J. Pharmacol. Exp. Ther., 218, 217-230, (1981)]. Male SD rats, each weighing approximately 500 g, were sacrificed by exsanguination, and the tail artery was excised from each animal. […] An initial tension of 0.5 g was loaded on the helical strip, and changes in tension were recorded in an isometric manner via a transducer. […]
Structures can show the parent of a compound that is named as a salt.
MEASUREMENT_NAME: IC50 (nM)

>>> endpoint_result("COc1cc(CCc2cc(F)ccc2OCC[C@@H]2C[C@@H](O)CN2C)ccc1F [Example 4, hydrochloride]")
2.3
>>> endpoint_result("COc1cccc(CCc2cc(F)ccc2OCC[C@@H]2C[C@@H](O)CN2C)c1 [Example 1, hydrochloride]")
1.9
>>> endpoint_result("CN1C[C@H](O)C[C@H]1CCOc1ccc(F)cc1CCc1ccc(F)cc1 [Example 2, hydrochloride]")
2
>>> endpoint_result("CN1C[C@H](O)C[C@H]1CCOc1ccc(F)cc1CCc1ccc(F)c(F)c1 [Example 7, hydrochloride]")
2.6
>>> endpoint_result("CN1C[C@H](O)C[C@H]1CCOc1ccc(F)cc1CCc1ccccc1 [Example 6, hydrochloride]")
2.2
